Test system: E. coli O157: H7 clinical isolate (AC188)
Assay: microbe, parasite or virus in culture
Format: cell-based, Escherichia coli O157: H7
Conditions: clinical isolate AC188; colony count <= 10 on blood agar; mean ± S.D., triplicate in two independent experiments
Ends that are not written are not given here.
MBC strictly under 7 µM means 1.0; at 7 µM or over means 0.0.

# substance, assigned.category
measured = [
    ("EWGRRMMGWRPGRRMMRRWW-NH2 [Ib-M5]", 0.0),
    ("EWGRRMMGWGRGRRMMRRWW-NH2 [Ib-M6]", 0.0),
    ("EWGRRMMGRGPGRRMMRWWR-NH2 [Ib-M1]", 1.0),
    ("EWGRRMMGRGPGRRMMRRWW-NH2 [Ib-M4]", 0.0),
    ("EWGRRMMGWRPGRRMMRWWR-NH2 [Ib-M2]", 1.0),
]
